Source of measurements: the RNAGym collection of RNA variant scans (doi:10.7554/elife.80360)

B1: HDV Ribozyme (parent)
chain: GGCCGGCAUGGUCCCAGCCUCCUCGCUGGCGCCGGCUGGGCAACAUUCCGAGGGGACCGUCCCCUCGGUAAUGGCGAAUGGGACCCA

Variants of: B1
Experiment: self-cleavage, relative activity (ratio to wild type); higher = more cleavage; co-transcriptional
Catalogue of variants with associated self-cleavage
// response body must contain only the number

Task: Could you share which self-cleavage value was measured for U60G A83G ?
Output: 0.712

Task: Any idea what its self-cleavage is? The variant is C14U G68A
Output: 0.95

Task: Value lookup for self-cleavage; key = G25A A71U
Output: 0.0369

Task: Need self-cleavage of U12G C49G , thanks.
Output: 0.787

Task: // returns reported self-cleavage for input G1A A8C
Output: 0

Task: Any idea what its self-cleavage is? The variant is G10C C15G
Output: 0.0723

Task: Would you mind telling me what self-cleavage value was observed for G6U G38U ?
Output: 0.0308

Task: Need self-cleavage of G53C A70C , thanks.
Output: 0.653

Task: So what does the record say about self-cleavage for C48A G81C ?
Output: 0.193

Task: self-cleavage lookup needed for `C7U` , thanks.
Output: 0.86

Task: Endpoint output: self-cleavage of U9C A56G . Value?
Output: 0.935

Task: Look at this variant and give its reported self-cleavage. A16U C48G
Output: 1.2

Task: Given the entry C41G A87U , report its measured self-cleavage.
Output: 0.788

Task: # lookup: self-cleavage of C19A C63U
Output: 0.1

Task: # query: self-cleavage of entry G25U C57U
Output: 0.227

Task: Please look up its self-cleavage: U47G C63A
Output: 1.06

Task: Fill in the blank: the reported self-cleavage of C24A U79G is ____.
Output: 0.312

Task: // query self-cleavage value for entry G31A U65A
Output: 0.366

Task: Any idea what its self-cleavage is? The variant is C58U A70G
Output: 1.01
